Reference source: ChEMBL document CHEMBL4673377

method: Drug uptake in mouse brain at 10 mg/kg, po after 1 hr
Format: ADME, organism-based
settings: read-out: Drug uptake
// concentration at 1 h lookup, one value per entry
quantity name: concentration at 1 h

>>> df
                               smiles_input  measured_value
0  Cc1ccc(S(=O)(=O)Nc2ccc(-c3ccccc3N3CCOCC3)nn2)cc1         69 ng/g
1  Cc1ccc(S(=O)(=O)Nc2ccc(-c3ccccc3N(C)C)nn2)cc1         25 ng/g
2  Cc1ccc(S(=O)(=O)Nc2ccc(-c3cccc4cccnc34)nn2)cc1       2910 ng/g
3  Cc1ccc(S(=O)(=O)Nc2ccc(-c3ccccc3N3CCCCC3)nn2)cc1        230 ng/g
4  Cc1ccc(S(=O)(=O)Nc2ccc(-c3ccccc3N3CCCC3)nn2)cc1         51 ng/g
5  COc1ccccc1-c1ccc(NS(=O)(=O)c2ccc(C)cc2)nn1        131 ng/g
6  CN(C)c1cccc(S(=O)(=O)Nc2ccc(-c3ccccc3N3CCCC3)nn2)c1        137 ng/g
7     O=C(O)c1cc(-c2ccc(Cl)c(OC3CC3)c2)ncn1        177 ng/g
